Target: Glycogen synthase kinase-3 beta (Homo sapiens) (UniProt P49841)
Sequence (P49841 whole entry, looked up): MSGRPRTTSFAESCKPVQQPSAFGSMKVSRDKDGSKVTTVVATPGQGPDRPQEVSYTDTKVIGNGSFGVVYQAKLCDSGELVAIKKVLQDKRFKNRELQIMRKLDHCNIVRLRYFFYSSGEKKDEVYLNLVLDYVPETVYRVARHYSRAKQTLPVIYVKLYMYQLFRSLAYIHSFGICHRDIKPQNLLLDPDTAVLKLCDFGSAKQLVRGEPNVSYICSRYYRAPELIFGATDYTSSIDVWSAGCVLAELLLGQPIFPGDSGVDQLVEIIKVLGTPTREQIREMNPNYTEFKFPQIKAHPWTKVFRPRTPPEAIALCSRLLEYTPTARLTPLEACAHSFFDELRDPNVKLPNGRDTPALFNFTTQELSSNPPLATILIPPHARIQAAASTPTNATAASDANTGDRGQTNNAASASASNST
Assay: Inhibition of GSK3B at 30 uM by microfluidic mobility shift assay
Form field: inhibition (one value per entry).
Record the value in %, omitting the unit from your answer.

{"Line notation": "Nc1n[nH]c2cc(-c3ccccn3)[nH]c(=O)c12", "Reported property": "inhibition", "Measured value": 60}

Entry under test: Nc1n[nH]c2c3c([nH]c(=O)c12)CCCC3 . Its inhibition was 23

----------
Form field: inhibition (one value per entry).
Target: Glycogen synthase kinase-3 beta (Homo sapiens) (UniProt P49841)
Assay: Inhibition of GSK3B at 30 uM by microfluidic mobility shift assay

// below: answered molecules
{"Line notation": "Cc1[nH]c(=O)c2c(N)n(-c3ccccc3)nc2c1-c1ccccc1", "inhibition": "16%"}
{"Line notation": "CC(C)(C)c1cc2[nH]nc(N)c2c(=O)[nH]1", "inhibition": "41%"}
{"Line notation": "COC(=O)CCc1c(C)[nH]c(=O)c2c(N)nn(C)c12", "inhibition": "17%"}
{"Line notation": "CC(C)(C)c1cc2nn(-c3ccccc3)c(N)c2c(=O)[nH]1", "inhibition": "31%"}
{"Line notation": "Cc1cc2c(c(N)nn2C)c(=O)[nH]1", "inhibition": "1%"}

Entry under test: Nc1c2c(=O)[nH]c(-c3ccccn3)cc2nn1-c1ccccc1 . Its inhibition was 11%

Every entry's value here was drawn from ChEMBL document CHEMBL1811853.
